Would you kindly list log10 of solubility kinetic for each of these molecules?
# setup_conditions: buffer; pH 7.4; 200.0 µM
Values below are the log10 of the recorded solubility kinetic, with µg/mL as the unit.

State the recorded log10 of solubility kinetic for this entry: `Cc1ccc(CN(C)CC(=O)Nc2ccc3c(c2)CCC3)cc1`
0.73

State the recorded log10 of solubility kinetic for this entry: `NS(=O)(=O)c1ccc(CNC(=O)Cc2ccccc2[N+](=O)[O-])cc1`
1.70

State the recorded log10 of solubility kinetic for this entry: CC1CCC(NC(=O)c2cc3ccccc3cc2O)CC1 (configuration not stated)
0.63

State the recorded log10 of solubility kinetic for this entry: N#Cc1ccc(-c2ccc(OCC(O)CN3CCCCC3)cc2)cc1 (configuration not stated)
1.63

State the recorded log10 of solubility kinetic for this entry: `O=C(Cc1c(F)cccc1Cl)NC1CCN(Cc2ccccc2)CC1`
1.70

Provide reported log10 of solubility kinetic for each item, in the same order as listed.
1. CCC(C)(C)NC(=O)C(OC(=O)c1ccco1)c1ccccc1F (configuration not stated)
2. COc1cc(/C=C2\SC(N)=NC2=O)cc(OC)c1

1: 1.34; 2: 0.58

###

# setup_conditions: buffer; pH 7.4; 200.0 µM
Would you kindly list solubility kinetic for each of these molecules?
One number for each entry, in µg/mL.

// solved cases for solubility kinetic follow
State the recorded solubility kinetic for this entry: CC(=O)c1cccc(NC(=O)C2COc3ccccc3O2)c1 (configuration not stated)
44.1

State the recorded solubility kinetic for this entry: `Cc1ccc(NC(=O)CCC(=O)c2cccs2)c(Br)c1`
8.6

Provide reported solubility kinetic for each item, in the same order as listed.
1. O=P([O-])(CN1CCCCCC1)C1Cc2ccccc2C1
2. NC(=O)c1ccccc1OCc1cccc2ccccc12
3. Cn1c(/C=C/c2cccc(Br)c2)nc2ccccc2c1=O

43.7
2.9
0.7

Provide reported solubility kinetic for each item, in the same order as listed.
1. Cc1ccc(-c2cc(C(=O)NC3CCCC3)no2)cc1
2. COc1ccc(Cn2cc(F)c(=O)n(C)c2=O)cc1[N+](=O)[O-]
3. O=c1[nH]c(=S)n(C2CCCCC2)c(O)c1C=NCCN1CCOCC1
4. CCCCNC(=S)N1CCn2cccc2C1c1ccc(F)cc1 (configuration not stated)
5. CC1CCCN(S(=O)(=O)c2cccc3nonc23)C1 (configuration not stated)
6. CC1(C)Cc2nc(-c3ccccc3)nc(SCC(O)CO)c2CO1 (configuration not stated)

[0.5, 42.8, 53, 10.3, 13.2, 51.7]

###

# setup_conditions: buffer; pH 7.4; 200.0 µM
Returns label 1 if the recorded solubility kinetic is greater than or equal to 10 µg/mL, and label 0 otherwise.

Form field: solubility kinetic at least 10 µg/mL? Entry: `N#Cc1cn(N2CCCCC2)c(=O)[nH]c1=O`
label 1

More entries:
Form field: solubility kinetic at least 10 µg/mL? Entry: `CC(=O)Nc1cccc(NC(=O)CCCC2CCCCC2)c1`
label 0

Form field: solubility kinetic at least 10 µg/mL? Entry: `Cc1cc(OC(=O)N(C)C)nc(-c2ccc(C)c(Cl)c2)n1`
label 1

Form field: solubility kinetic at least 10 µg/mL? Entry: `COc1ccc(Cn2c(C(C)C)nc3sc4ccccc4c(=O)c3c2=O)cc1`
label 0

Form field: solubility kinetic at least 10 µg/mL? Entry: `O=C(O)COCC(=O)NCc1csc2ccccc12`
label 1

Form field: solubility kinetic at least 10 µg/mL? Entry: `Cc1ccccc1-c1noc(CNC(=O)COc2ccccc2)n1`
label 0

Form field: solubility kinetic at least 10 µg/mL? Entry: `O=C(O)c1ccc(S(=O)(=O)N2CCCc3ccccc32)cc1`
label 1

Form field: solubility kinetic at least 10 µg/mL? Entry: `COc1ccccc1CNC(=O)COC(=O)c1cc(C)nc2ccccc12`
label 1

Form field: solubility kinetic at least 10 µg/mL? Entry: `COc1ccccc1C(=O)NC(=O)COC(=O)C1CCC1`
label 1

Form field: solubility kinetic at least 10 µg/mL? Entry: Cc1ccc(NC(=S)N2CC(C)OC(C)C2)cc1C (stereo unspecified)
label 1

Form field: solubility kinetic at least 10 µg/mL? Entry: `CCOc1ccc(-c2c(=O)n(O)c3ccccc3[n+]2[O-])cc1`
label 1

Form field: solubility kinetic at least 10 µg/mL? Entry: `O=C(Nc1ncc([N+](=O)[O-])s1)c1cccs1`
label 1

Form field: solubility kinetic at least 10 µg/mL? Entry: `O=C(CNC(c1ccccc1)c1ccccc1)Nc1ccccc1F`
label 0

Form field: solubility kinetic at least 10 µg/mL? Entry: CC1CCCCC12NC(=O)N(Cc1cc(=O)n3ccsc3n1)C2=O (stereo unspecified)
label 1

###

# setup_conditions: buffer; pH 7.4; 200.0 µM
measure_name: solubility kinetic (µg/mL)
One number for each entry, in µg/mL.

// solved cases for solubility kinetic follow
State the recorded solubility kinetic for this entry: `O=C(NC(=O)c1ccccc1)Nc1ccccn1`
9.5

State the recorded solubility kinetic for this entry: CC(C)N1C(=O)c2ccccc2C1C(=O)NCCc1ccccc1 (configuration not stated)
48

State the recorded solubility kinetic for this entry: `CCOC(=O)c1c(NC(=O)c2cc(C)on2)c2cc([N+](=O)[O-])ccc2n1C`
1.6

State the recorded solubility kinetic for this entry: `O=C(COC(=O)/C=C/c1ccc(OC(F)F)cc1)NC(=O)NC1CCCCC1`
4.5

State the recorded solubility kinetic for this entry: CC1CC1C(=O)OCC(=O)Nc1ccc(Cl)cn1 (configuration not stated)
27.6

Provide reported solubility kinetic for each item, in the same order as listed.
1. O=[N+]([O-])c1ccccc1CN1CCN(c2ncccn2)CC1
2. COc1ccccc1N(C)S(=O)(=O)c1ccc(C(=O)Nc2cc(F)ccc2C)cc1
3. Brc1ccccc1OCCN1CCCC1

34.8
7.5
32

###

# setup_conditions: buffer; pH 7.4; 200.0 µM
measure_name: log10 solubility kinetic (log10 of the value in µg/mL)
Values below are the log10 of the recorded solubility kinetic, with µg/mL as the unit.

// solved cases for log10 solubility kinetic follow
State the recorded log10 solubility kinetic for this entry: `COc1ccc(CN(C(=O)c2cccs2)c2ccccc2)cc1`
0.94

State the recorded log10 solubility kinetic for this entry: COc1cccc(C(=O)NC(C)c2cccc3ccccc23)c1OC (stereo not drawn)
1.28

Provide reported log10 solubility kinetic for each item, in the same order as listed.
1. COc1cc(CNc2nc3ccccc3s2)cc(OC)c1OC
2. N#CC1=C(N)Oc2cc(O)c(Cl)cc2C1c1cccnc1 (stereo not drawn)
3. CN1CCN(CCCNC(=O)CN2C(=O)COc3ccccc32)CC1
4. CC(C)c1nc(Cl)c(C#N)c2c1CCC2

[1.68, 1.05, 1.58, 0.63]

Provide reported log10 solubility kinetic for each item, in the same order as listed.
1. COc1ccc(NC(=O)C2CCCN(C(=O)Nc3ccc(F)cc3)C2)cc1 (stereo not drawn)
2. O=C(COC(=O)CCC1CCCC1)Nc1ccc(F)cc1

[1.09, 0.77]

###

Would you kindly list solubility kinetic for each of these compounds?
# setup_conditions: buffer; pH 7.4; 200.0 µM
Give bare numbers, in µg/mL.

State the recorded solubility kinetic for this entry: `c1ccc2ncccc2c1`
12.4

State the recorded solubility kinetic for this entry: `CCc1ccccc1NC(=O)COC(=O)c1cccs1`
2.9

State the recorded solubility kinetic for this entry: Cc1ccc(N2C(=O)C(F)(F)C2c2ccccc2)cc1 (stereo not given)
1

State the recorded solubility kinetic for this entry: `CCOc1ccc(NC(=O)NCc2ccc3c(c2)OCO3)cc1`
1.8

State the recorded solubility kinetic for this entry: `N#CCc1nc(C(c2ccccc2)c2ccccc2)no1`
33.5

Provide reported solubility kinetic for each item, in the same order as listed.
1. O=c1c2ccccc2ncn1Cc1ccc2c(c1)OCO2
2. c1ccc(CNCCc2c[nH]c3ccccc23)cc1

1. 15.1
2. 37.2

Provide reported solubility kinetic for each item, in the same order as listed.
1. COC(=O)c1ccc(NC(=O)CSc2nc3ncccc3[nH]2)cc1
2. O=C(NC1CCN(C(=O)Nc2ccc(F)cc2)CC1)c1ccc(F)cc1
3. Cc1noc(C)c1COC(=O)c1cc(S(=O)(=O)N2CCOCC2)ccc1Cl
4. CCOc1cccc2sc(=NC(=O)c3ccco3)n(CC(=O)OC)c12

[3.5, 3.7, 42.4, 2]

Provide reported solubility kinetic for each item, in the same order as listed.
1. CC(Nc1nc(C(F)(F)F)nc2ccccc12)c1cccs1 (stereo not given)
2. Cc1ccc(Sc2ccc(C(=O)N(C)C)cc2[N+](=O)[O-])cc1
3. CCOC(=O)CSc1nc2c(c(=O)[nH]1)C(C)(CC)Cc1ccccc1-2 (stereo not given)
4. CCC(=O)Nc1cc(-c2nc3ncccc3o2)ccc1Cl
5. O=C(NCc1ccccn1)Nc1cc(Cl)cc(Cl)c1

6.5
35
1.5
13.8
40.8

Provide reported solubility kinetic for each item, in the same order as listed.
1. O=C(Nc1cccc2ncccc12)c1cc(Br)ccc1Cl
2. CC1CCCC(NC(=O)COC(=O)[C@@H](NC(=O)c2ccc(F)cc2)C(C)C)C1C (stereo not given in full)
3. COc1ccc([N+](=O)[O-])cc1NC(=O)C(C)OC(=O)Cc1ccc(OC)c(OC)c1 (stereo not given)
4. Cc1ncc(CN2CCCC(C(=O)c3cccc(Cl)c3)C2)s1 (stereo not given)
5. CCCOc1ccc(N2C(=O)CC(NCC#N)C2=O)cc1 (stereo not given)
6. CN1CCN(C(=O)C2CCN(S(=O)(=O)c3ccc(F)cc3)CC2)CC1

1: 5; 2: 8.7; 3: 31.1; 4: 43.2; 5: 41; 6: 38.5

Provide reported solubility kinetic for each item, in the same order as listed.
1. Cc1ccc(C(=O)Nc2nccs2)cc1
2. Cc1cc(C)cc(N2CC(C(=O)NC3CCCCC3)CC2=O)c1 (stereo not given)
3. O=C(N/C(=C\c1ccccc1)C(=O)N1CCCCC1)c1ccco1
4. O=C(CCCn1cnc2ccccc2c1=O)Nc1ccccc1F

[16.5, 11.4, 42.4, 20.2]
